Sourced from patent US20040106626A1

Listed here are compounds together with their documented pIC50.
molecular target: recombinant soluble tissue factor and recombinant human factor VIIa (TF-VIIa) (Homo sapiens); construct: conversion of coagulation factor VII to VIIa by factor Xa; experiment: TF-VIIa assay (chromogenic substrate hydrolysis); conditions: reported only as less than or greater than 0.1 uM
Sequence (P08709 213-466 limits assumed): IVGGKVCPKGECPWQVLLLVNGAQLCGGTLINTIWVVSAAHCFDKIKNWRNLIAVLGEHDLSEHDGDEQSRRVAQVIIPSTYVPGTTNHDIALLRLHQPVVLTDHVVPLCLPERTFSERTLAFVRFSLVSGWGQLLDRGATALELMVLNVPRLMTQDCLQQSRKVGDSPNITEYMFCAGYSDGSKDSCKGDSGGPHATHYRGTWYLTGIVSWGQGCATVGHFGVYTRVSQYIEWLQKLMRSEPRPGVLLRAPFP
Sequence (P08709 61-212 limits assumed): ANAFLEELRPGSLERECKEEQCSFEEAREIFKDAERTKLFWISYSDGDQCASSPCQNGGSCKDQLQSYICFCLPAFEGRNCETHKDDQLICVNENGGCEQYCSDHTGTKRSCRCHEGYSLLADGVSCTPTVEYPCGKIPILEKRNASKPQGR
Sequence (P13726 33-251 partner limits assumed): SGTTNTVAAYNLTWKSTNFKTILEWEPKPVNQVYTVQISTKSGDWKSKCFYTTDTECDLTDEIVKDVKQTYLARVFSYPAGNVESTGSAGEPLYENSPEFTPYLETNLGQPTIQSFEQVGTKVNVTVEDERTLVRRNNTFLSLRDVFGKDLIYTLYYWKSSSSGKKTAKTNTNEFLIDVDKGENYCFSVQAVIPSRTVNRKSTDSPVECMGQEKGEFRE
pIC50: −log10 of the molar value.

Field: example entries. Status: answers known.
CC(C)Nc1ncc(-c2cc(N)cc(C(F)(F)F)c2)n(CC(=O)NCc2ccc(C(=N)N)c(O)c2F)c1=O : < 7.00
CC(C)CCOc1cc(N)cc(-c2cnc(NC(C)C)c(=O)n2CC(=O)NCc2ccc(C(=N)N)cc2)c1.O=C(O)C(F)(F)F.O=C(O)C(F)(F)F : > 7.00

Fill blank: measured pIC50 of the compound CCC(C)C(=O)Nc1cc(N)cc(-c2cnc(NC(C)C)c(=O)n2CC(=O)NCc2ccc(C(=N)N)cc2)c1.O=C(O)C(F)(F)F.O=C(O)C(F)(F)F (stereo not shown) is ____. > 7.00

How about this compound: CC(C)Nc1ncc(-c2cc(N)cc(OC(=O)C3CC3)c2)n(CC(=O)NCc2ccc(C(=N)N)cc2)c1=O.O=C(O)C(F)(F)F.O=C(O)C(F)(F)F > 7.00

====

target: Human thrombin (Homo sapiens); construct: converts prothrombin (II) to thrombin (IIa); purchased Calbiochem, La Jolla, Calif; assay: Thrombin assay (chromogenic substrate); assay type: biochemical; settings: reported only as less than or greater than 30 uM; read-out: Thrombin (II) IC50
Metric name: IC50

CCC(CC)S(=O)(=O)c1cc(N)cc(-c2cnc(NC(C)C)c(=O)n2CC(=O)NCc2ccc(C(=N)N)cc2)c1.O=C(O)C(F)(F)F.O=C(O)C(F)(F)F : > 30 µM
N=C(N)c1ccc(CNC(=O)Cn2c(-c3cc(N)cc(C(=O)OCc4ccccc4)c3)cnc(NC3CC3)c2=O)cc1.O=C(O)C(F)(F)F : > 30 µM
CC[C@@H](C)NC(=O)c1cc(N)cc(-c2cnc(NC(C)C)c(=O)n2CC(=O)NCc2c(O)cc(C(=N)N)cc2OCC(=O)O)c1 : > 30 µM
CC[C@H](C)NC(=O)c1cc(N)cc(-c2cnc(N[C@@H](C)CC)c(=O)n2CC(=O)NCc2ccc(C(=N)N)cc2)c1.O=C(O)C(F)(F)F.O=C(O)C(F)(F)F : < 30 µM
CC(C)Nc1ncc(-c2cc(N)cc(OCC3CC3)c2)n(CC(=O)NCc2ccc(C(=N)N)cc2)c1=O.O=C(O)C(F)(F)F.O=C(O)C(F)(F)F : > 30 µM

API: the following record is the query input.
Fill blank: measured IC50 of the molecule CC(C)Nc1ncc(-c2cc(N)cc(NS(=O)(=O)c3ccc(F)cc3F)c2)n(CC(=O)NCc2ccc(C(=N)N)cc2)c1=O is ____. > 30 µM

====

Biological target: recombinant soluble tissue factor and recombinant human factor VIIa (TF-VIIa) (Homo sapiens)
Construct: conversion of coagulation factor VII to VIIa by factor Xa
Assay: TF-VIIa assay (chromogenic substrate hydrolysis)
Details: reported only as less than or greater than 0.1 uM
Description: In this assay 100 nM recombinant soluble tissue factor and 2 nM recombinant human factor VIIa are added to a 96-well assay plate containing 0.4 mM of the substrate, N-methylsulfonyl-D-phe-gly-arg-p-nitroaniline and either inhibitor or buffer (5 mM CaCl2, 50 mM Tris-HCl, pH 8.0, 100 mM NaCl, 0.1% BSA). […] Percent inhibition of TF-VIIa activity is calculated from OD405 nm value from the experimental and control sample. […]
Listed here are compounds together with their documented IC50.

Fill blank: measured IC50 of the compound CC[C@H](C)NC(=O)c1cc(N)cc(-c2cnc(N[C@@H](C)C(C)C)c(=O)n2CC(=O)NCc2ccc(C(=N)N)cc2)c1.O=C(O)C(F)(F)F.O=C(O)C(F)(F)F is ____. < 100 nM

How about this compound: CC[C@H](C)NC(=O)c1cc(N)cc(-c2cnc(NC(C)C)c(=O)n2CC(=O)NCc2c(O)cc(C(=N)N)cc2O)c1 > 100 nM

How about this compound: CC(C)Nc1ncc(-c2cc(N)cc(C(N)=O)c2)n(CC(=O)NCc2ccc(C(=N)N)cc2)c1=O < 100 nM

====

target: recombinant soluble tissue factor and recombinant human factor VIIa (TF-VIIa) (Homo sapiens); construct: conversion of coagulation factor VII to VIIa by factor Xa; experiment: TF-VIIa assay (chromogenic substrate hydrolysis); conditions: reported only as less than or greater than 0.1 uM
Metric name: IC50

CC(C)NC(=O)c1cc(N)cc(-c2cnc(NC(C)C)c(=O)n2CC(=O)NCc2ccc(C(=N)N)cc2)c1 [Example 60] : < 0.1 µM

Fill blank: measured IC50 of the compound CCCNc1ncc(-c2cc(N)cc(C(=O)N[C@@H](C)CC)c2)n(CC(=O)NCc2ccc(C(=N)N)cc2)c1=O.O=C(O)C(F)(F)F.O=C(O)C(F)(F)F [Example 192] is ____. < 0.1 µM

How about this compound: CC(C)Nc1ncc(-c2cc(N)cc(OCC3CC3)c2)n(CC(=O)NCc2ccc(C(=N)N)cc2)c1=O.O=C(O)C(F)(F)F.O=C(O)C(F)(F)F [Example 223] < 0.1 µM

How about this compound: CC(C)Nc1ncc(-c2cc(N)cc(C(=O)NCc3ccc(C(=O)O)cc3)c2)n(CC(=O)NCc2ccc(C(=N)N)cc2)c1=O.O=C(O)C(F)(F)F.O=C(O)C(F)(F)F [Example 171] < 0.1 µM

====

Listed here are molecules together with their documented pIC50.
biological target: Human thrombin (Homo sapiens, UniProt P00734); construct: converts prothrombin (II) to thrombin (IIa); purchased Calbiochem, La Jolla, Calif; assay: Thrombin assay (chromogenic substrate); format: biochemical; conditions: reported only as less than or greater than 30 uM; read-out: Thrombin (II) IC50
pIC50: −log10 of the molar value.

Field: example entries. Status: answers known.
CCC(C)NC(=O)c1cc(N)cc(-c2cnc(NC(C)C)c(=O)n2CC(=O)NCc2ccc(C(=N)N)cc2)c1.O=C(O)C(F)(F)F.O=C(O)C(F)(F)F (stereo not shown) : > 4.52
CC(C)Nc1ncc(-c2cc(N)cc(NCCC(C)c3ccccc3)c2)n(CC(=O)NCc2ccc(C(=N)N)cc2)c1=O (stereo not shown) : > 4.52
CC(C)COc1cc(N)cc(-c2cnc(NC(C)C)c(=O)n2CC(=O)NCc2ccc(C(=N)N)cc2)c1 : < 4.52

Fill blank: measured pIC50 of the molecule CCOC(=O)c1cc(N)cc(-c2cnc(NC3CC3)c(=O)n2CC(=O)NCc2ccc(C(=N)N)cc2)c1.O=C(O)C(F)(F)F is ____. < 4.52

How about this molecule: CC(C)Nc1ncc(-c2cc(N)cc(NC(=O)OC(C)(C)C)c2)n(CC(=O)NCc2ccc(C(=N)N)c(O)c2)c1=O < 4.52

How about this molecule: CC[C@@H](C)NC(=O)c1cc(N)cc(-c2cnc(N[C@@H](C)CO)c(=O)n2CC(=O)NCc2ccc(C(=N)N)cc2)c1 > 4.52

How about this molecule: COc1cc(N)cc(-c2cnc(NC(C)C)c(=O)n2CC(=O)NCc2cc(O)c(C(=N)N)c(F)c2)c1 < 4.52

====

biological target: Human thrombin (Homo sapiens, UniProt P00734); construct: converts prothrombin (II) to thrombin (IIa); purchased Calbiochem, La Jolla, Calif; test: Thrombin assay (chromogenic substrate); assay type: biochemical; details: reported only as less than or greater than 30 uM; read-out: Thrombin (II) IC50
Metric name: IC50

Field: example entries. Status: answers known.
CC(C)Nc1ncc(-c2cc(N)cc(OC(C)C)c2)n(CC(=O)NCc2ccc(C(=N)N)cc2)c1=O.O=C(O)C(F)(F)F.O=C(O)C(F)(F)F : > 30 µM
CCCNc1ncc(-c2cc(N)cc(C(=O)N[C@@H](C)CC)c2)n(CC(=O)NCc2ccc(C(=N)N)cc2)c1=O.O=C(O)C(F)(F)F.O=C(O)C(F)(F)F : < 30 µM
CC(C)Nc1ncc(-c2cc(N)cc(C(=O)NC3CCCC3)c2)n(CC(=O)NCc2ccc(C(=N)N)cc2)c1=O : < 30 µM
CC(C)CNC(=O)c1cc(N)cc(-c2cnc(NC(C)C)c(=O)n2CC(=O)NCc2ccc(C(=N)N)cc2)c1 [Example 5] : < 30 µM
COCCOCCOCCOCCOCCOCCOC(=O)c1cc(N)cc(-c2cnc(NC(C)C)c(=O)n2CC(=O)NCc2ccc(C(=N)N)cc2)c1 : > 30 µM
CC(C)Nc1ncc(-c2cc(N)cc(C(F)(F)F)c2)n(CC(=O)NCc2ccc(C(=N)N)cc2)c1=O : > 30 µM
CC(C)Nc1ncc(-c2cc(N)cc(OC3CCCCC3)c2)n(CC(=O)NCc2ccc(C(=N)N)cc2)c1=O.O=C(O)C(F)(F)F.O=C(O)C(F)(F)F : > 30 µM

API: the following record is the query input.
Fill blank: measured IC50 of the molecule CC(C)Nc1ncc(-c2cc(N)cc(NC(=O)Cc3ccccc3)c2)n(CC(=O)NCc2ccc(C(=N)N)cc2)c1=O is ____. > 30 µM
